# Tested on: HCC-2998 colon
# experiment: NCI-60 one-dose screen, 48 h
# condition-description: 10 µM unless noted
Compounds without any hit were thinned out: in the full panel of roughly 83,000, 20% have a hit. Calls of active or inactive are those of the source. How the source made its calls: active means growth percent below 10; inactive means the rest.
Respond with a class label; see active, inactive

Consider the worked cases shown below.
[[record]]
compound = "CCSc1nc(-c2ccc(F)cc2)c(C#N)c(=O)[nH]1"
assigned_label = "inactive"

[[record]]
compound = "CCCCCCCCCCOC(C)=O"
assigned_label = "inactive"


Query: Answer briefly: the call reported for `CCn1cnc(C[C@H](NC(=O)[C@H](CCCCNC(=O)Nc2cc(C(F)(F)F)cc(C(F)(F)F)c2)NC(=O)Nc2cc(C(F)(F)F)cc(C(F)(F)F)c2)C(=O)OC)c1` in this assay.
Result: active

Query: Dear all, I need the recorded test outcome for `c1ccc(-c2oc(-c3ccccc3)c3ccccc23)cc1` , thank you.
Result: inactive

Query: Name the outcome recorded for COc1cc(/C=C2\CN(C)CC3=C2Nc2nc(SC)[nH]c(=O)c2C3c2cc(OC)c(OC)c(OC)c2)cc(OC)c1OC (centres undefined) in the assay.
Result: inactive

Query: Hi, sorry to bother you, what did the test record for `CC(=O)c1nn(-c2ccccc2)c(=Nc2ccccc2)cc1C` ?
Result: inactive

Query: Give the logged outcome of this assay for the following compound: `C[C@H]1C(=O)N2c3ccccc3[C@@]3(O)C[C@@H](n4cnc5ccccc5c4=O)C(=O)N1[C@@H]23`
Result: inactive
